The following compounds are shown together with reported Selectivity Ratio values.
system: AMPDA activity from porcine heart; experiment: AMP Deaminase Assay (Example A); type: biochemical; details: selectivity ratio=[ADA Ki/Km]/[AMPDA Ki/Km]; K = 1,000
Readout type: Selectivity Ratio

Compound: CC(CCCCn1cnc2c1N=CNCC2O)(C(=O)O)C(=O)NCc1ccccc1 (centres unmarked)
Observed result: > 6.3K
//
Compound: O=C(O)c1cc(CCn2cnc3c2N=CNCC3O)c2ccccc2c1 (centres unmarked)
Observed result: > 850K
//
Compound: O=C(O)C(CCCCn1cnc2c1N=CNCC2O)C(=O)OCc1ccccc1 (centres unmarked)
Observed result: > 47K
//
Compound: CC1(C)[C@H]2CC[C@H](Cn3cnc4c3N=CNCC4O)[C@@H]1C2 (some centres unmarked)
Observed result: > 1.6K
//
Compound: CC(C)=CCC[C@H](C)CCn1cnc2c1N=CNCC2O (some centres unmarked)
Observed result: 29

---

target: AMPDA activity from porcine heart; assay: AMP Deaminase Assay (Example A); settings: porcine heart AMPDA, 37° C., pH 6.5, competitive inhibition assumed

Compound: CC1=Nc2c(ncn2CCCc2ccccc2C)C(O)CN1 (stereo not drawn)
Measurement units: nM
Ki: 11000
//
Compound: CC1(C)[C@H]2CC[C@H](Cn3cnc4c3N=CNCC4O)[C@@H]1C2 (stereo partly drawn)
Measurement units: nM
Ki: 1700
//
Compound: CCCCCCCn1cnc2c1N=CNCC2O (stereo not drawn)
Measurement units: nM
Ki: 10000
//
Compound: O=C(O)c1cc(CCn2cnc3c2N=CNCC3O)c2ccccc2c1 (stereo not drawn)
Measurement units: nM
Ki: 20
//
Compound: O=C(O)C(CCCCn1cnc2c1N=CNCC2O)C(=O)OCc1ccccc1 (stereo not drawn)
Measurement units: nM
Ki: 360
//
Compound: CC(C)=CCC[C@H](C)CCn1cnc2c1N=CNCC2O (stereo partly drawn)
Measurement units: nM
Ki: 1100
//
Compound: [N-]=[N+]=NC1CNC=Nc2c1ncn2CCCc1ccccc1 (stereo not drawn)
Measurement units: nM
Ki: 6600
//
Compound: O=C(O)c1cc(CCn2cnc3c2N=CNCC3O)cs1 (stereo not drawn)
Measurement units: nM
Ki: 2200
//
Compound: Cc1ccccc1CCCn1cnc2c1N=CNCC2O (stereo not drawn)
Measurement units: nM
Ki: 2100
//
Compound: Cc1ccc(-c2nn[nH]n2)cc1CCn1cnc2c1N=CNCC2O (stereo not drawn)
Measurement units: nM
Ki: 1600
//
Compound: OC1CNC=Nc2c1ncn2C1CCCCCC1 (stereo not drawn)
Measurement units: nM
Ki: 8000
//
Compound: CCCOc1ccc(CCCn2cnc3c2N=CNCC3O)cc1 (stereo not drawn)
Measurement units: nM
Ki: 3600
//
Compound: CCCCCCCn1cnc2c1N=CNCC2(C)O (stereo not drawn)
Measurement units: nM
Ki: 36000
//
Compound: Cc1ccc(C(=O)O)cc1CCn1cnc2c1N=CNCC2O (stereo not drawn)
Measurement units: nM
Ki: 97
//
Compound: CC(CCCCn1cnc2c1N=CNCC2O)(C(=O)O)C(=O)NCc1ccccc1 (stereo not drawn)
Measurement units: nM
Ki: 2700

---

Target: adenosine deaminase (ADA) from calf intestinal mucosa (Bos taurus, UniProt P56658)
Construct: adenosine deaminase (ADA) from calf intestinal mucosa; from tissue; host or cells: calf intestinal mucosa
Sequence (P56658 1-363): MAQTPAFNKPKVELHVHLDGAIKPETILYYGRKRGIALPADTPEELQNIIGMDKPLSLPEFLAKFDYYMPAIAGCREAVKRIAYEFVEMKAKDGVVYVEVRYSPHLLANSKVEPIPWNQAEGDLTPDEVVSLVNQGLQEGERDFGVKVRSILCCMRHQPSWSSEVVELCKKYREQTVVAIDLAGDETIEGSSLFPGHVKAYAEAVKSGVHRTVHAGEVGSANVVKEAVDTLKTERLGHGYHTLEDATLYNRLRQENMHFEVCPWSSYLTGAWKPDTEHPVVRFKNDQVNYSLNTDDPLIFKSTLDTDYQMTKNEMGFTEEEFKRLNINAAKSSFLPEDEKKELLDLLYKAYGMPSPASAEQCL
Assay: Adenosine Deaminase Assay (Example B)
Assay type: biochemical
Details: calf intestinal mucosa ADA, pH 7.0; read-out: ADA Ki
pKi: −log10 of the molar value.

Compound: CC(C)=CCC[C@H](C)CCn1cnc2c1N=CNCC2O (stereo partly shown) [compound 1c]
Target system: adenosine deaminase (ADA) from calf intestinal mucosa (Bos taurus, UniProt P56658)
Value modifier: =
pKi: 5.72

Compound: O=C(O)C(CCCCn1cnc2c1N=CNCC2O)C(=O)OCc1ccccc1 (stereo not shown) [compound 1k]
Target system: adenosine deaminase (ADA) from calf intestinal mucosa (Bos taurus, UniProt P56658)
Value modifier: <
pKi: 3.00

Compound: CCCCCCCn1cnc2c1N=CNCC2O (stereo not shown) [compound 1a, 3-heptylcoformycin aglycone]
Target system: adenosine deaminase (ADA) from calf intestinal mucosa (Bos taurus, UniProt P56658)
Value modifier: =
pKi: 6.46

Compound: CCCOc1ccc(CCCn2cnc3c2N=CNCC3O)cc1 (stereo not shown) [compound 1i]
Target system: adenosine deaminase (ADA) from calf intestinal mucosa (Bos taurus, UniProt P56658)
Value modifier: =
pKi: 8.22

Compound: Cc1ccc(C(=O)O)cc1CCn1cnc2c1N=CNCC2O (stereo not shown) [compound 1m]
Target system: adenosine deaminase (ADA) from calf intestinal mucosa (Bos taurus, UniProt P56658)
Value modifier: <
pKi: 3.00

Compound: CC1=Nc2c(ncn2CCCc2ccccc2C)C(O)CN1 (stereo not shown) [compound 1g]
Target system: adenosine deaminase (ADA) from calf intestinal mucosa (Bos taurus, UniProt P56658)
Value modifier: <
pKi: 4.00

Compound: CC(CCCCn1cnc2c1N=CNCC2O)(C(=O)O)C(=O)NCc1ccccc1 (stereo not shown) [compound 1l]
Target system: adenosine deaminase (ADA) from calf intestinal mucosa (Bos taurus, UniProt P56658)
Value modifier: <
pKi: 3.00

Compound: [N-]=[N+]=NC1CNC=Nc2c1ncn2CCCc1ccccc1 (stereo not shown) [compound 1h]
Target system: adenosine deaminase (ADA) from calf intestinal mucosa (Bos taurus, UniProt P56658)
Value modifier: =
pKi: 7.20

Compound: O=C(O)c1cc(CCn2cnc3c2N=CNCC3O)c2ccccc2c1 (stereo not shown) [compound 1p]
Target system: adenosine deaminase (ADA) from calf intestinal mucosa (Bos taurus, UniProt P56658)
Value modifier: <
pKi: 3.00

Compound: O=C(O)C(CCCCn1cnc2c1NC=NCC2O)Cc1ccccc1 (stereo not shown) [compound 1j]
Target system: adenosine deaminase (ADA) from calf intestinal mucosa (Bos taurus, UniProt P56658)
Value modifier: <
pKi: 3.70

---

tested on: AMPDA activity from porcine heart; assay: AMP Deaminase Assay (Example A); assay type: biochemical; conditions: selectivity ratio=[ADA Ki/Km]/[AMPDA Ki/Km]; K = 1,000
Readout type: Selectivity Ratio

Molecule: Cc1ccc(C(=O)O)cc1CCn1cnc2c1N=CNCC2O (stereo not drawn)
Target system: AMPDA activity from porcine heart
Observed result: > 175K
--
Molecule: Cc1ccc(-c2nn[nH]n2)cc1CCn1cnc2c1N=CNCC2O (stereo not drawn)
Target system: AMPDA activity from porcine heart
Observed result: > 2.1K
--
Molecule: CC1=Nc2c(ncn2CCCc2ccccc2C)C(O)CN1 (stereo not drawn)
Target system: AMPDA activity from porcine heart
Observed result: > 150
